Test: PhoP regulon inhibitors, Salmonella typhi PhoP promoter GFP reporter, confirmatory (AID 1850);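 note: 0% = induced wells with vehicle and 100% = uninduced wells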
Details: fluorescence, 4 h, at 50 µM, stronger effect = higher value
Among all 310,000 compounds or so, about 1,000 (0.32%) were called active. A selection follows. Results with a measured potency or affinity are listed apart.

| molecule | inhibition [%] |
| --- | --- |
| Cn1ccsc1=NC(=O)c1ccc(S(=O)(=O)C(F)F)cc1 | 2.31 |
| CCOC(=O)C(C)c1ccc2cc(OC)ccc2c1 (configuration not stated) | -2.05 |
| CC(Nc1nc(N2CCNCC2)nc2ccccc12)c1ccccc1 (configuration not stated) | 17.9 |
| COc1ccccc1OCc1ccc(C(=O)NCc2ccco2)o1 | -2.77 |
| CCCn1c(O)c(N=NC(=O)CNC(=O)Cc2ccc(OC)cc2)c2ccccc21 | -19.2 |
| Cc1cccc(NC(=O)CN2C(=O)C(C)Oc3ccccc32)n1 (configuration not stated) | -5.84 |
| COc1ccc(/C=C/C(=O)Oc2ccc(C)cc2)cc1 | -5.85 |
| COc1cc2ncnc(NCc3ccc(C)o3)c2cc1OC | 1.27 |
| Cc1cc(C)c(C(=O)/C=C/c2cccc3ccccc23)c(=O)[nH]1 | -11.9 |
| O=C1CN=C(c2ccc[nH]2)c2cc(Cl)ccc2N1 | -4.67 |
| CC(C)NC(=O)CCCc1ccccc1 | -2.72 |
| OCCNc1nc(N2CCCCC2)nc2ccccc12 | 4.37 |
